- target_system: High affinity nerve growth factor receptor (Homo sapiens) (UniProt P04629)
- Sequence (P04629 33-796 limits assumed): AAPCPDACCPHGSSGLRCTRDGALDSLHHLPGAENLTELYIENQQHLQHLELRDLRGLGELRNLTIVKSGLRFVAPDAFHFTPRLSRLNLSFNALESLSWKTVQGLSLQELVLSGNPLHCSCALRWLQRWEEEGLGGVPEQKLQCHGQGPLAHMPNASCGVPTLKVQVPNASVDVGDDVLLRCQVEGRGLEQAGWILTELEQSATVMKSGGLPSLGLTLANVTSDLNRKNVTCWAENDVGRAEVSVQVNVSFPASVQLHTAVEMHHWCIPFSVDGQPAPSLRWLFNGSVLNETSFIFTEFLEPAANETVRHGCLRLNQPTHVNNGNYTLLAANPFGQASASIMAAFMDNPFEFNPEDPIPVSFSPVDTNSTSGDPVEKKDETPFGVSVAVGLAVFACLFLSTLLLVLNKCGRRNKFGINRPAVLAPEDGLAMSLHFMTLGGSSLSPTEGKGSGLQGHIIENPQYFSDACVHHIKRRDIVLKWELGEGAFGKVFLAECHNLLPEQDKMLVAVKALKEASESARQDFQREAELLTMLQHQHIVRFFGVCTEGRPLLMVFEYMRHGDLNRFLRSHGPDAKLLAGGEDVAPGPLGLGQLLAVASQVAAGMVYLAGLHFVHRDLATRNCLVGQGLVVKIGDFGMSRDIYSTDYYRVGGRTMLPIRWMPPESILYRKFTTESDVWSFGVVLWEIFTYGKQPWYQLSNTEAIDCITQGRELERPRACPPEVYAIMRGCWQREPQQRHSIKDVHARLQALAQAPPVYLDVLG
- assay_name: Inhibition of TRK-A (unknown origin) assessed as remaining activity at 1 uM using fluorescein-poly GAT as substrate in presence of ATP by TR-FRET assay relative to control
readout_name: Activity (%)

{"smiles_code": "COc1ccc(NC(=O)NCc2cn(CC(=O)N3CCN(C)CC3)c3ccc(F)cc23)cc1", "target_system": "High affinity nerve growth factor receptor (Homo sapiens) (UniProt P04629)", "readout_name": "Activity", "reading": 80}
{"smiles_code": "CN1CCN(C(=O)Cn2cc(CNC(=O)Nc3ccc(C(F)(F)F)cc3)c3cc(F)ccc32)CC1", "target_system": "High affinity nerve growth factor receptor (Homo sapiens) (UniProt P04629)", "readout_name": "Activity", "reading": 81.5}
{"smiles_code": "COc1ccc2c(c1)c(CNC(=O)Nc1ccc(F)cc1F)cn2CC(=O)N1CCOCC1", "target_system": "High affinity nerve growth factor receptor (Homo sapiens) (UniProt P04629)", "readout_name": "Activity", "reading": 77.8}

====

- target_system: High affinity nerve growth factor receptor (Homo sapiens) (UniProt P04629)
- assay_name: Inhibition of TRK-A (unknown origin) assessed as remaining activity at 1 uM using fluorescein-poly GAT as substrate in presence of ATP by TR-FRET assay relative to control
readout_name: Activity (%)

{"smiles_code": "COc1ccc2c(c1)c(CNC(=O)Nc1ccc(C(F)(F)F)cc1)cn2CC(=O)N1CCOCC1", "Activity (%)": 71.8}
{"smiles_code": "COc1ccc2c(c1)c(CNC(=O)Nc1ccccc1Cl)cn2CC(=O)N1CCOCC1", "Activity (%)": 91.7}
{"smiles_code": "COc1ccc2c(c1)c(CNC(=O)Nc1ccc(F)cc1F)cn2CC(=O)N1CCN(C)CC1", "Activity (%)": 93.1}
{"smiles_code": "O=C(NCc1cn(CC(=O)N2CCCC2)c2ccc(F)cc12)Nc1ccccc1Cl", "Activity (%)": 78}
{"smiles_code": "COc1ccc2c(c1)c(CNC(=O)Nc1ccccc1Cl)cn2CC(=O)N1CCN(C)CC1", "Activity (%)": 94}

====

- target_system: NT-3 growth factor receptor (Homo sapiens) (UniProt Q16288)
- Sequence (Q16288 32-839 limits assumed): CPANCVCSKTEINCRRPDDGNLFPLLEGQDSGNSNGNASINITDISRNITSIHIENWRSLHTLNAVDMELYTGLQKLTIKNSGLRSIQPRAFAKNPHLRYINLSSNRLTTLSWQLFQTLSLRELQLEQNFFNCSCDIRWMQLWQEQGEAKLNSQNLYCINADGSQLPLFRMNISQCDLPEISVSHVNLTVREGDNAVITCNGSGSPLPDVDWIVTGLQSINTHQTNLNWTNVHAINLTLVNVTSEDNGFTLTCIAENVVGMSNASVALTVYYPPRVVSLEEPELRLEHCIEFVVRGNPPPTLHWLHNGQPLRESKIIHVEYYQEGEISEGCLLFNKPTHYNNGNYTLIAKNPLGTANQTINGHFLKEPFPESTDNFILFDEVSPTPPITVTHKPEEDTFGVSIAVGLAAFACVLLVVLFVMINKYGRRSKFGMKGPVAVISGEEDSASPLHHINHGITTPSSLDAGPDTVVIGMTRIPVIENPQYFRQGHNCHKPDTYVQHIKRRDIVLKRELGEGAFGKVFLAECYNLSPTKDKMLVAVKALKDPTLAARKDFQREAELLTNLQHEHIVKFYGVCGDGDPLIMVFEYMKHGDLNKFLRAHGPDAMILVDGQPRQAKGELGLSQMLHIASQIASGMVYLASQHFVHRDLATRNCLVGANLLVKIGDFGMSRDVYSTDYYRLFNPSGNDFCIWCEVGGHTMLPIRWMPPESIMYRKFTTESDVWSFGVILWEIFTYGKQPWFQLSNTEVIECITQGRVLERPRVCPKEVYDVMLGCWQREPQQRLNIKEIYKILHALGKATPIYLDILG
- assay_name: Inhibition of TRK-C (unknown origin) assessed as remaining activity at 1 uM using fluorescein-poly GAT as substrate in presence of ATP by TR-FRET assay relative to control
readout_name: Activity (%)

{"smiles_code": "COc1ccc2c(c1)c(CNC(=O)Nc1ccccc1Cl)cn2CC(=O)N1CCN(C)CC1", "unit_of_measure": "%", "reading": 82.9}

(1) COc1ccc2c(c1)c(CNC(=O)Nc1ccc(C(F)(F)F)cc1)cn2CC(=O)N1CCOCC1
(2) COc1ccc2c(c1)c(CNC(=O)Nc1ccc(F)cc1F)cn2CC(=O)N1CCOCC1
*Q* // pick min by Activity: 1 , 2 // return label of chosen record
*A* 2
(2: 60.5%, 1: 103%)

====

- target_system: NT-3 growth factor receptor (Homo sapiens) (UniProt Q16288)
- assay_name: Inhibition of TRK-C (unknown origin) assessed as remaining activity at 1 uM using fluorescein-poly GAT as substrate in presence of ATP by TR-FRET assay relative to control
readout_name: Activity (%)

{"smiles_code": "COc1ccc2c(c1)c(CNC(=O)Nc1ccccc1Cl)cn2CC(=O)N1CCOCC1", "readout_name": "Activity", "reading": 86}
{"smiles_code": "O=C(NCc1cn(CC(=O)N2CCOCC2)c2ccc(F)cc12)Nc1ccc(C(F)(F)F)cc1", "readout_name": "Activity", "reading": 98.3}
{"smiles_code": "O=C(NCc1cn(CC(=O)N2CCCCC2)c2ccc(F)cc12)Nc1ccc(F)cc1F", "readout_name": "Activity", "reading": 83.5}
{"smiles_code": "COc1ccc(NC(=O)NCc2cn(CC(=O)N3CCOCC3)c3ccc(OC)cc23)cc1", "readout_name": "Activity", "reading": 89}
{"smiles_code": "Cc1ccc(NC(=O)NCc2cn(CC(=O)N3CCN(C)CC3)c3ccc(F)cc23)cc1", "readout_name": "Activity", "reading": 104}
{"smiles_code": "Cc1ccc(NC(=O)NCc2cn(CC(=O)N3CCCCC3)c3ccc(F)cc23)cc1", "readout_name": "Activity", "reading": 99.7}
{"smiles_code": "O=C(NCc1cn(CC(=O)N2CCCCC2)c2ccc(F)cc12)Nc1ccccc1Cl", "readout_name": "Activity", "reading": 84.2}
{"smiles_code": "CN1CCN(C(=O)Cn2cc(CNC(=O)Nc3ccc(F)cc3F)c3cc(F)ccc32)CC1", "readout_name": "Activity", "reading": 78.6}
{"smiles_code": "COc1ccc(NC(=O)NCc2cn(CC(=O)N3CCN(C)CC3)c3ccc(OC)cc23)cc1", "readout_name": "Activity", "reading": 94.5}
